Tested on: IGROV1 ovarian
Assay: NCI tumour cell line growth inhibition, 48 h

{"compound": "O=C1CC(c2ccccc2)=Nc2ccccc2N1", "TGI": "> 100 µM"}
{"compound": "COC12C=C/C(=C(/C(=O)OCc3ccccn3)C(=O)CCCCCCCCC3(OC)C=C/C(=C(/C(=O)OCc4ccccn4)C(=O)CCCCCCCC1)O3)O2", "TGI": "3.73 µM"}
{"compound": "COc1cc(OC)c2c3c(OC)cc(OC)c4c(=O)c(O)c(C[C@@H](C)O)c(c5c(C[C@@H](C)O)c(O)c(=O)c1c25)c43", "TGI": "49.2 µM"}
{"compound": "Cc1csc2[n+]1-c1ccccc1N(C(=O)Nc1ccccc1)C(C)C2 (stereo not given)", "TGI": "> 100 µM"}
{"compound": "Cc1csc2c1-n1cccc1C2=O", "TGI": "> 100 µM"}
{"compound": "COc1ccc2c3c([nH]c2c1)CCN(CCCC(=O)c1ccc(F)cc1)C3", "TGI": "32.7 µM"}
{"compound": "CCOC(=O)C(Cc1ccc(OC(=O)OC(C)(C)C)cc1)NC(=O)OC(C)(C)C (stereo not given)", "TGI": "> 100 µM"}
{"compound": "Cc1sc2c(c1C)/C(=N\\O)c1cccn1-2", "TGI": "> 100 µM"}
{"compound": "O=C(O)[C@H](NS(=O)(=O)c1ccc(F)cc1)c1ccccc1", "TGI": "> 100 µM"}
{"compound": "CC(=O)NC(C)(C)C1CCC(C)=C(c2ccccc2)C1 (stereo not given)", "TGI": "> 100 µM"}

====

Test system: OVCAR-3 ovarian
Assay: NCI tumour cell line growth inhibition, 48 h
assay.readout: TGI

{"compound": "O=C(NC(=O)c1cc(-c2ccccc2)n[nH]1)c1ccccc1", "reading": "> 100 µM"}
{"compound": "C[CH2][Ge]([CH2]C)([CH2]C)[O]C(=O)C(OC(C)=O)c1ccccc1 (centres undefined)", "reading": "> 100 µM"}
{"compound": "COc1cc(Nc2ncc(-c3ccccc3)o2)cc(OC)c1", "reading": "> 25 µM"}
{"compound": "NC1=Nc2cc(Cl)ccc2Sc2nc3ccccc3n21", "reading": "> 100 µM"}
{"compound": "O=C(CCC=C(S(=O)(=O)c1ccccc1)S(=O)(=O)c1ccccc1)c1ccccc1", "reading": "17.4 µM"}
{"compound": "COC1=CC(=O)CC(C)C12Oc1c(Cl)c(OC)cc(OC)c1C2=O (centres undefined)", "reading": "> 100 µM"}
{"compound": "O=C(/C=C(\\S/C=C(/c1ccccc1)N1CCn2c(C(=O)c3ccccc3)c(C(=O)c3ccccc3)c(C(=O)c3ccccc3)c21)C(=O)c1ccccc1)c1ccccc1", "reading": "> 10 µM"}
{"compound": "CCC(C)[C@H](NC(=O)Nc1cc(C(F)(F)F)cc(C(F)(F)F)c1)C(=O)N[C@@H](Cc1cn(C)cn1)C(=O)OC (some centres undefined)", "reading": "1.14 µM"}
{"compound": "CC1CC/C(=C\\c2ccc(F)cc2)C(=O)/C1=C/c1ccc(F)cc1 (centres undefined)", "reading": "28.1 µM"}

====

System: CAKI-1 renal
Assay: NCI tumour cell line growth inhibition, 48 h

{"compound": "COCN1COCN=C1NC#N", "test.target": "CAKI-1 renal", "censoring.operator": ">", "TGI, µM": 100}
{"compound": "COC1=CC(=O)CC(C)C12Oc1c(Cl)c(OC)cc(OC)c1C2=O (stereo not given)", "test.target": "CAKI-1 renal", "censoring.operator": "=", "TGI, µM": 84.9}
{"compound": "O=C(Nc1cccc(O)c1)c1ccc(NC2=C(Cl)C(=O)N(Cc3ccc(Cl)cc3Cl)C2=O)cc1", "test.target": "CAKI-1 renal", "censoring.operator": "=", "TGI, µM": 3.58}
{"compound": "Cc1cccc(C)c1NC(=O)C1=NC(=S)NC(c2ccccc2)C1c1nc2ccccc2s1 (stereo not given)", "test.target": "CAKI-1 renal", "censoring.operator": ">", "TGI, µM": 100}
{"compound": "C[C@@H]1C(=O)C[C@H]2C(C)(C)CCC[C@]2(C)[C@@]1(O)CCc1ccoc1", "test.target": "CAKI-1 renal", "censoring.operator": ">", "TGI, µM": 100}
{"compound": "CCN(CC)CCCNc1cc(OC)cc2nc3cc(Cl)ccc3nc12", "test.target": "CAKI-1 renal", "censoring.operator": "=", "TGI, µM": 5.03}
{"compound": "COc1cc(/C=C/C(=O)/C=C/c2ccc(-n3ccnc3C)cc2)ccc1O", "test.target": "CAKI-1 renal", "censoring.operator": "=", "TGI, µM": 10.9}
{"compound": "O=C1CC(c2cccc(F)c2)Nc2cc3c(cc21)OCO3 (stereo not given)", "test.target": "CAKI-1 renal", "censoring.operator": ">", "TGI, µM": 100}
{"compound": "COc1ccc2c(c1OC)CO[C@@H]2[C@H]1c2c(cc3c(c2OC)OCO3)CCN1S(=O)(=O)c1cn(C)cn1", "test.target": "CAKI-1 renal", "censoring.operator": ">", "TGI, µM": 100}
{"compound": "CC(C)=CCC/C(C)=C/COc1c2ccoc2cc2oc(=O)ccc12", "test.target": "CAKI-1 renal", "censoring.operator": ">", "TGI, µM": 100}

====

Test system: COLO 205 colon
Assay: NCI tumour cell line growth inhibition, 48 h
Overview of recorded TGI for various compounds

{"compound": "COCN1COCN=C1NC#N", "TGI": "> 100 µM"}
{"compound": "COC(=O)N[C@H](C(=O)O)C(C)O[Si](C)(C)C(C)(C)C (stereo partly specified)", "TGI": "> 100 µM"}
{"compound": "O=S(=O)(O)c1cc(O)c(N=Nc2ccc(O)cc2O)c2ccccc12", "TGI": "> 100 µM"}
{"compound": "c1ccc2c3c([nH]c2c1)[C@H]1C2CCCCN2CN1CC3 (stereo partly specified)", "TGI": "> 100 µM"}
{"compound": "O=C1C(Cl)=C(N(C(=O)c2ccccc2)C(=O)c2ccccc2)C(=O)c2ccccc21", "TGI": "31 µM"}
{"compound": "CC(C)(C)OC(=O)CN1CCNCCN(CC(=O)OC(C)(C)C)CCNCC1", "TGI": "> 100 µM"}
{"compound": "O=C(O)c1cnc(-n2[nH]c3c(c2=O)CCCC3)[nH]c1=O", "TGI": "> 100 µM"}
{"compound": "CC1=C(SCCC(=O)OC(C[Se]C2=C(C)C(=O)c3ccccc3C2=O)C(=O)NCCCCCC(=O)OCc2ccccc2)C(=O)c2ccccc2C1=O (stereo unspecified)", "TGI": "22.6 µM"}
{"compound": "COc1ccc(N=NC(=O)NC(CC(C)C)C(N)=O)cc1 (stereo unspecified)", "TGI": "24.9 µM"}
{"compound": "CCCCCCCCCCCCCCCCCCn1cc[n+](C)c1", "TGI": "1.28 µM"}
{"compound": "O=C1C=CC=C/C1=C1/SC(c2ccccc2)=C(O)N1c1ccccc1", "TGI": "> 100 µM"}

====

System: KM12 colon
Experiment: NCI tumour cell line growth inhibition, 48 h; in the data active = GI50 below about 0.43 µM; inactive = the rest
Possible outcomes: 1 (active), -1 (inactive)

{"molecule": "COc1ccc2c(c1)[nH]c(=O)c1c3cccc(F)c3cn21", "qualitative.label": 1}
{"molecule": "Cc1csc2[n+]1-c1ccccc1N(C(=O)Nc1ccccc1)C(C)C2 (centres undefined)", "qualitative.label": -1}
{"molecule": "CCCCCCCCCCCCCCCCCCn1cc[n+](C)c1", "qualitative.label": 1}
{"molecule": "O=C(Nc1ccccc1)Nc1ccc2cc3ccc(NC(=O)Nc4ccccc4)cc3nc2c1", "qualitative.label": -1}

====

Tested on: NCI-H460 lung
Assay: NCI tumour cell line growth inhibition, 48 h
Reported TGI by item:
assay.readout: TGI

{"molecule": "O=C(/C=C/c1cccc(Oc2ccccc2)c1)NCc1ccc(C(=O)NCCc2ccccc2)cc1", "assay.readout": "TGI", "reading": "> 100 µM"}
{"molecule": "CC(=O)Oc1ccc2c(c1)CC[C@@H]1C2[C@@H](O[N+](=O)[O-])C[C@@]2(C)C1CC[C@@H]2O[N+](=O)[O-] (stereo not given in full)", "assay.readout": "TGI", "reading": "28.7 µM"}
{"molecule": "CN(C)c1ccc2oc(=O)c3ccccc3c2c1", "assay.readout": "TGI", "reading": "> 100 µM"}
{"molecule": "Nc1[nH]nc2nc3ccccc3nc12", "assay.readout": "TGI", "reading": "> 100 µM"}
{"molecule": "Cc1cccc(C)c1NC(=O)C1=NC(=S)NC(c2ccccc2)C1c1nc2ccccc2s1 (stereo not given)", "assay.readout": "TGI", "reading": "> 100 µM"}
{"molecule": "Cc1c(N=Nc2ccccc2)c(C)n(C2OC(CO)C(O)C(O)C2O)c(=S)c1C#N (stereo not given)", "assay.readout": "TGI", "reading": "> 100 µM"}
{"molecule": "COc1cccc(CC(C)=C(c2ccc(OCCN3CCCCC3)cc2)c2ccc(OCCN3CCCCC3)cc2)c1", "assay.readout": "TGI", "reading": "3.93 µM"}
{"molecule": "Cc1oc2c(c1C)S(=O)(=O)C(C#N)=C(N(C)C)N2", "assay.readout": "TGI", "reading": "> 100 µM"}
{"molecule": "Cc1cc2c(C)n(Cc3ccccc3Cl)nc2c(C(=O)O)c1C", "assay.readout": "TGI", "reading": "> 100 µM"}
{"molecule": "Cc1sc2c(c1C)/C(=N\\O)c1cccn1-2", "assay.readout": "TGI", "reading": "> 100 µM"}
